ASSAYED SYSTEM: Itk (Homo sapiens, UniProt Q08881)
Construct: Kinases are expressed as either kinase domains or full length constructs; made in house
Sequence (Q08881 whole entry, species assumed, the tested form may be a part): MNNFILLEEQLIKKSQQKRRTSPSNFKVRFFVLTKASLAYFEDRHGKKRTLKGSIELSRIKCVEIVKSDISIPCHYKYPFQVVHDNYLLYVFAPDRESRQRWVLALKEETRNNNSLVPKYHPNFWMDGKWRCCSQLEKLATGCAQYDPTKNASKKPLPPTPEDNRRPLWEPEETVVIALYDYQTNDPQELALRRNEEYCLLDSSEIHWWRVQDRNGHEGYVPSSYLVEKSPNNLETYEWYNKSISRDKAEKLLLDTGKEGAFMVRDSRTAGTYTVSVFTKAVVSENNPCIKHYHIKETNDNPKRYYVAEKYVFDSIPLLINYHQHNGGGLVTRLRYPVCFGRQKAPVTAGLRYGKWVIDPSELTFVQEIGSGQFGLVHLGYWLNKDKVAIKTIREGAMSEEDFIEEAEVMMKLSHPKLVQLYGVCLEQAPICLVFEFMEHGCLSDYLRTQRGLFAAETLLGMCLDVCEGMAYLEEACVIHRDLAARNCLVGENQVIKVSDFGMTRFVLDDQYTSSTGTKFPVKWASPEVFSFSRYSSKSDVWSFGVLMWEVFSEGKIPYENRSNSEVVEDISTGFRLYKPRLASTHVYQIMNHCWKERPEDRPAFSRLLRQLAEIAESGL
EXPERIMENT SUMMARY: Kinase inhibition assay (33P transfer), Itk
Type: biochemical
CONDITIONS USED: Table 3; read-out: Itk-1
pIC50: −log10 of the molar value.
MEASURED PROPERTY: pIC50

- MOLECULE: "COc1ccc(Nc2ncnc(Nc3ccc(Br)cc3F)n2)cc1OC"
  ASSAYED SYSTEM: "Itk (Homo sapiens, UniProt Q08881)"
  READOUT VALUE: "< 4.97"
- MOLECULE: "COC(=O)c1cccc(Nc2nc3ccccc3n2-c2ncnc(Nc3cc(OC)c(OC)c(OC)c3)n2)c1"
  ASSAYED SYSTEM: "Itk (Homo sapiens, UniProt Q08881)"
  READOUT VALUE: "5.18 to 5.34"
- MOLECULE: "O=c1[nH]c2ccccc2n1-c1ncnc(Nc2ccc(OC(F)(F)F)cc2)n1"
  ASSAYED SYSTEM: "Itk (Homo sapiens, UniProt Q08881)"
  READOUT VALUE: "< 4.94"
- MOLECULE: "Oc1cccc(Nc2ncnc(Nc3ccc(OCc4ccccc4)cc3)n2)c1"
  ASSAYED SYSTEM: "Itk (Homo sapiens, UniProt Q08881)"
  READOUT VALUE: "< 4.93"
- MOLECULE: "COc1cc(Nc2ncnc(Nc3cc(OC)c(OC)c(OC)c3)n2)cc(OC)c1OC"
  ASSAYED SYSTEM: "Itk (Homo sapiens, UniProt Q08881)"
  READOUT VALUE: "< 4.99"
- MOLECULE: "COc1cc(Nc2ncnc(Nc3ccc(Oc4ccccc4)cc3)n2)cc(OC)c1OC"
  ASSAYED SYSTEM: "Itk (Homo sapiens, UniProt Q08881)"
  READOUT VALUE: "< 5.00"
- MOLECULE: "COc1cc(C)c(Nc2ncnc(Nc3cc(-c4ccco4)n[nH]3)n2)cc1OC"
  ASSAYED SYSTEM: "Itk (Homo sapiens, UniProt Q08881)"
  READOUT VALUE: "< 4.94"
- MOLECULE: "COc1cc(Nc2ncnc(-c3ccsc3)n2)cc(OC)c1OC"
  ASSAYED SYSTEM: "Itk (Homo sapiens, UniProt Q08881)"
  READOUT VALUE: "< 4.88"
- MOLECULE: "COc1cc(Nc2ncnc(Nc3nc(C)cs3)n2)cc(OC)c1OC"
  ASSAYED SYSTEM: "Itk (Homo sapiens, UniProt Q08881)"
  READOUT VALUE: "< 4.92"
- MOLECULE: "COc1cc(Nc2ncnc(N(c3ccccc3)c3nc4ccccc4[nH]3)n2)cc(OC)c1OC"
  ASSAYED SYSTEM: "Itk (Homo sapiens, UniProt Q08881)"
  READOUT VALUE: "< 5.02"
- MOLECULE: "Cc1cccc(Nc2ncnc(Nc3cccc(Br)c3)n2)c1"
  ASSAYED SYSTEM: "Itk (Homo sapiens, UniProt Q08881)"
  READOUT VALUE: "< 4.90"
- MOLECULE: "COc1cc(Nc2ncnc(N3CCCC4CCCCC43)n2)cc(OC)c1OC (stereo not shown)"
  ASSAYED SYSTEM: "Itk (Homo sapiens, UniProt Q08881)"
  READOUT VALUE: "5.22 to 6.00"
- MOLECULE: "COc1cc(C)c(Nc2ncnc(-c3cccs3)n2)cc1OC"
  ASSAYED SYSTEM: "Itk (Homo sapiens, UniProt Q08881)"
  READOUT VALUE: "< 4.86"
- MOLECULE: "Nc1ncnc(Nc2cccc(Cl)c2)n1"
  ASSAYED SYSTEM: "Itk (Homo sapiens, UniProt Q08881)"
  READOUT VALUE: "< 4.69"
- MOLECULE: "Cc1cccc(Nc2ncnc(Nc3ccc4[nH]ccc4c3)n2)c1"
  ASSAYED SYSTEM: "Itk (Homo sapiens, UniProt Q08881)"
  READOUT VALUE: "4.96 to 5.12"
- MOLECULE: "COc1cc(Nc2ncnc(Nc3ccc(-c4ccccc4)cc3)n2)cc(OC)c1OC"
  ASSAYED SYSTEM: "Itk (Homo sapiens, UniProt Q08881)"
  READOUT VALUE: "< 4.98"
- MOLECULE: "COc1cc(Nc2ncnc(-n3ccnc3)n2)cc(OC)c1OC"
  ASSAYED SYSTEM: "Itk (Homo sapiens, UniProt Q08881)"
  READOUT VALUE: "< 4.86"
- MOLECULE: "COc1cc(Nc2ncnc(Nc3ccc(Cl)cc3)n2)cc(OC)c1OC"
  ASSAYED SYSTEM: "Itk (Homo sapiens, UniProt Q08881)"
  READOUT VALUE: "< 4.94"
- MOLECULE: "O=[N+]([O-])c1cccc(Nc2ncnc(-c3cccs3)n2)c1"
  ASSAYED SYSTEM: "Itk (Homo sapiens, UniProt Q08881)"
  READOUT VALUE: "< 4.82"
